tested on: HOP-92 NSCLC; assay: NCI tumour cell line growth inhibition, 48 h

| Molecule | Measure unit | Op | TGI |
| --- | --- | --- | --- |
| O=C(Nc1ccccc1F)c1ccc(NC2=C(Cl)C(=O)N(Cc3ccccc3)C2=O)cc1 | µM | = | 5.03 |
| CN1CCN(c2cc(Nc3cc(C4CC4)[nH]n3)nc(Nc3ccc(CC(=O)NCc4cccc(F)c4)cc3)n2)CC1 | µM | = | 4.8 |
| O=C1C=C(Nc2nc(C(=O)O)cc(=O)[nH]2)c2ccccc2C1=O | µM | > | 100 |
| CCOC(=O)CN(Cc1ccccc1)Cc1c(C(=O)c2ccccc2)c2ccccc2n1C(=O)c1ccccc1 | µM | > | 100 |
| CN(C)CCCC(=O)Nc1ccc(Cn2nnc3c2C(=O)c2nnn(Cc4ccc(NC(=O)CCCN(C)C)cc4)c2C3=O)cc1 | µM | = | 5.82 |
| CCOC(=O)CCC(NC(=O)c1ccc(NCc2ccc3nc(-c4ccccc4)c(Cl)nc3c2)c2ccccc12)C(=O)OCC (stereo unspecified) | µM | > | 100 |
| C1C[OH+]CC[OH+]CC[OH+]CC[OH+]CC[OH+]CC[OH+]1.[Cl-].[Ta+5] | µM | > | 100 |
| CC(=O)N1C(OCc2ccccc2)CCN1c1ccccc1 (stereo unspecified) | µM | > | 10 |
| Nc1nc(Nc2ccc3c(c2)CCC(N2CCCC2)CC3)nn1-c1cc2c(nn1)-c1ccccc1CCC2 (stereo unspecified) | µM | = | 1.69 |
| C#CC#CC#CC#CC#CC#CC#CC#CCC1OC[C@H](COC(=O)O[C@@H](C(=O)O[C@H]2C[C@@]3(O)[C@@H](OC(=O)c4ccccc4)[C@@H]4[C@]5(OC(C)=O)CO[C@@H]5C[C@H](O)[C@@]4(C)C(=O)[C@H](OC(C)=O)C(=C2C)C3(C)C)[C@@H](NC(=O)c2ccccc2)c2ccccc2)O1 (stereo partly specified) | µM | > | 33.3 |
| CC1CN=C(N(C)C(=O)Nc2ccc(Cl)c(Cl)c2)S1 (stereo unspecified) | µM | = | 22.9 |
| O=C(NNCc1ccccc1O)c1ccccc1O | µM | > | 100 |
| COC1=CCC2=C(CCN(C(=O)C3CCC3)C2Cc2ccc(OC)c(O)c2)C1 (stereo unspecified) | µM | = | 79.4 |
| N#Cc1ccc2oc3ccc(C#N)cc3c(=O)c2c1 | µM | > | 100 |
| C=CCc1cccc2cc(C(=O)Nc3nc(C45CC6CC(CC(C6)C4)C5)cs3)c(=O)oc12 | µM | = | 43.1 |
| COC(=O)[C@H](Cc1ccccc1)NC(=O)[C@@H](OC)[C@@H]1Cc2cc3cc(OC4CC(OC5CC(O)C(O)C(C)O5)C(O)C(C)O4)c(C)c(O)c3c(O)c2C(=O)[C@H]1OC1CC(OC2CC(OC3CC(C)(O)C(O)C(C)O3)C(O)C(C)O2)C(O)C(C)O1 (stereo partly specified) | µM | = | 0.202 |
